// provenance: paper PMC11019746

target: human neuropeptide Y Y1 receptor (human) (UniProt P25929); assay: radioligand binding; competition with [^3H]UR-MK299 ([…]) at intact SK-N-MC cells, 23 ± 2 °C, buffer II (150 mM NaCl)
Sequence (P25929 whole entry): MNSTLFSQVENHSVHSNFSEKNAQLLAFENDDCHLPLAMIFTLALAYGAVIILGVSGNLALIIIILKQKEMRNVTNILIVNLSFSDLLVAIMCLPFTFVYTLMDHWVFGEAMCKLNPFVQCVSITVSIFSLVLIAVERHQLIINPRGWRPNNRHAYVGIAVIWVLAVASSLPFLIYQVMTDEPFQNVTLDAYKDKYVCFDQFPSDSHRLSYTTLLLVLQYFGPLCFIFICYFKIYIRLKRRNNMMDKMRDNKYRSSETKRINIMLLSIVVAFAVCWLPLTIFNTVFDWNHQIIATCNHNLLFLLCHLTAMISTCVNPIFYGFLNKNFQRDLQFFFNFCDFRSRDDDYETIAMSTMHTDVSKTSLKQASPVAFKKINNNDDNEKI
Where no end group is shown, it is not given here.
Assay Endpoint: pKi

The binder RYRLRY (not fully specified; as 11; the alkyne of the carbamoylated arginine in position 1 joined by click chemistry (triazole) to the azido-functionalized pyridinium-type cyanine dye 15 (from Py-5); C-terminal amide, peptide chain as in 11, whose linear precursor 10 is printed in three-letter code at h-0020; 19 is made from 11 and dye 15; source: synthetic peptide: from 11 and the azido-functionalized dye 15 by copper(I)-catalyzed click reaction, preparative HPLC) [fluorescent ligand 19 (Py-5-labeled cyclic hexapeptide)] showed pKi equal to < 6

The binder RYRLRY (N^α-succinyl; N^ω-[hex-5-ynylaminocarbonyl]-Arg at position 1; N^ω-[(aminobutyl)aminocarbonyl]-Arg at position 3; cyclized via the succinyl carboxylic group and the primary amino group of the carbamoylated arginine in position 3; C-terminal amide, printed in three-letter code for the linear precursor 10: N^α-succinyl-N^ω[hex-5-ynylaminocarbonyl]-Arg-Tyr-N^ω-[(aminobutyl)aminocarbonyl]Arg-Leu-Arg-Tyr-amide; 11 is its cyclized form; source: synthetic peptide (SPPS of linear peptide 10, cyclization in solution, preparative HPLC)) [cyclic peptide 11 (alkyne-functionalized precursor peptide)] showed pKi equal to < 5

The binder RYRLRY-NH2 (also: Py-1 cyanine dye on the amine of a carbamoylated Arg in the ring, position not given here, cyclic, ring closure not given here, peptide part as in m6; structure drawn in Scheme 2; source: synthetic peptide: from precursor peptide 6 and the pyrylium dye Py-1 (14), preparative HPLC) [fluorescent ligand 18 (Py-1-labeled cyclic hexapeptide)] showed pKi equal to < 6

The binder RYRLRY-NH2 (also: Sulfo-Cy5 (S0223) conjugated to the amine of the cyclic precursor peptide 6, N^ω-carbamoylated arginine in the ring, position not given here, peptide part as in m6; structure drawn in Scheme 2; source: synthetic peptide: from precursor peptide 6 and the succinimidyl ester 13 (S0586) of Sulfo-Cy5 (S0223), preparative HPLC) [fluorescent ligand 17 (Sulfo-Cy5-labeled cyclic hexapeptide)] showed pKi equal to < 6

The binder RYRLRY-NH2 (not fully specified (bridges); also: Cy3B conjugated to the amine of the cyclic precursor peptide 6, N^ω-carbamoylated arginine in the ring, position not given here, structure drawn in Scheme 2; source: synthetic peptide: from precursor peptide 6 and Cy3B succinimidyl ester (12), preparative HPLC) [fluorescent ligand 16 (Cy3B-labeled cyclic hexapeptide)] showed pKi equal to 6.91
